Exercise: state measured pIC50 for each of the molecules provided.
Target: UniProtKB Q9NWZ3
Experiment: Inhibition of IRAK4 (unknown origin) using 5FAM-RKRQGSVRRRVHCCOOH as substrate after 30 mins by IMAP assay
One number for each entry, as −log10 of the molar value.

# example entries with known answers
CCc1nc(N[C@@H]2C[C@H](CO)[C@@H](O)[C@H]2O)c(-c2nc3ccccc3s2)c(=O)[nH]1 : 6.01
C[C@@H]1CC[C@@H](Nc2nc(N3CCOCC3)[nH]c(=O)c2-c2nc3ccccc3s2)CN1 : 7.03
CSc1nc(N[C@@H]2C[C@H](CO)[C@@H](O)[C@H]2O)c(-c2nc3ccccc3s2)c(=O)[nH]1 : 6.45

Take each entry in turn and give its pIC50.
1. CN(C)c1nc(N[C@@H]2C[C@H](CO)[C@@H](O)[C@H]2O)c(-c2nc3ccccc3s2)c(=O)[nH]1
2. O=c1[nH]c(N2CCc3ccccc3C2)nc(N[C@@H]2C[C@H](CO)[C@@H](O)[C@H]2O)c1-c1nc2ccccc2s1
3. OC[C@H]1C[C@@H](Nc2nc(NC3CC3)ncc2-c2nc3ccccc3s2)[C@H](O)[C@@H]1O
4. C[C@H]1CC[C@@H](Nc2nc(N3CCOCC3)[nH]c(=O)c2-c2nc3ccccc3s2)CN1

Solution:
1. 6.31
2. 7.57
3. 6.33
4. 6.25

###

Experiment: Apparent permeability of the compound across pig LLC-PK1 cells
Format: ADME, cell-based, Sus scrofa
Simple rule here: Papp less than 9 ×10⁻⁶ cm/s is 1, otherwise 0.

O=c1[nH]c(N2CCOCC2)nc(N[C@@H]2CCCNC2)c1-c1nc2ccccc2s1 : 0
C[C@@H]1CC[C@@H](Nc2nc(N3CCOCC3)[nH]c(=O)c2-c2nc3ccccc3s2)CN1 : 0
O=c1[nH]c(N2CCCC2)nc(N[C@@H]2C[C@H](CO)[C@@H](O)[C@H]2O)c1-c1nc2ccccc2s1 : 0
O=c1[nH]c(N2CCOCC2)nc(N[C@@H]2C[C@H](CO)[C@@H](O)[C@H]2O)c1-c1nc2ccccc2s1 : 1
O=c1[nH]c(N2CCc3ccccc3C2)nc(N[C@@H]2C[C@H](CO)[C@@H](O)[C@H]2O)c1-c1nc2ccccc2s1 : 1

Please turn your attention to the following entry.
Problem: Bench note: check whether O=c1[nH]c(N2CCC2)nc(N[C@@H]2C[C@H](CO)[C@@H](O)[C@H]2O)c1-c1nc2ccccc2s1 shows Papp below 9 ×10⁻⁶ cm/s
Solution: 0

###

Exercise: state measured bioavailability for each of the molecules provided.
Assay: Oral bioavailability in Wistar Han rat at 10 mg/kg
Assay type: ADME, organism-based
Conditions: in vivo
Answers are plain numbers, in %.

# example entries with known answers
O=c1[nH]c(N2CCOCC2)nc(N[C@H]2CNC[C@H](O)C2)c1-c1nc2ccccc2s1 : 2
C[C@@H]1CC[C@@H](Nc2nc(N3CCOCC3)[nH]c(=O)c2-c2nc3ccccc3s2)CN1 : 42
O=c1[nH]c(N2CCC2)nc(N[C@@H]2C[C@H](CO)[C@@H](O)[C@H]2O)c1-c1nc2ccccc2s1 : 4
O=c1[nH]c(N2CCOCC2)nc(N[C@@H]2CCCNC2)c1-c1nc2ccccc2s1 : 13

Take each entry in turn and give its bioavailability.
1. O=c1[nH]c(N2CCc3ccccc3C2)nc(N[C@@H]2C[C@H](CO)[C@@H](O)[C@H]2O)c1-c1nc2ccccc2s1
2. O=c1[nH]c(N2CCOCC2)nc(N[C@@H]2C[C@H](CO)[C@@H](O)[C@H]2O)c1-c1nc2ccccc2s1

Solution:
0
0

###

Experiment: Kinetic solubility of the compound at pH 7
Assay type: physicochemical
Conditions: buffer
MEASURE NAME: solubility kinetic (µM)
One number for each entry, in µM.

# example entries with known answers
O=c1[nH]c(N2CCc3ccccc3C2)nc(N[C@@H]2C[C@H](CO)[C@@H](O)[C@H]2O)c1-c1nc2ccccc2s1 : 12
O=c1[nH]c(N2CCC2)nc(N[C@@H]2C[C@H](CO)[C@@H](O)[C@H]2O)c1-c1nc2ccccc2s1 : 23

Take each entry in turn and give its solubility kinetic.
1. C[C@@H]1CC[C@@H](Nc2nc(N3CCOCC3)[nH]c(=O)c2-c2nc3ccccc3s2)CN1
2. O=c1[nH]c(N2CCOCC2)nc(N[C@H]2CNC[C@H](O)C2)c1-c1nc2ccccc2s1
3. O=c1[nH]c(N2CCOCC2)nc(N[C@@H]2C[C@H](CO)[C@@H](O)[C@H]2O)c1-c1nc2ccccc2s1
4. O=c1[nH]c(N2CCOCC2)nc(N[C@@H]2CCCNC2)c1-c1nc2ccccc2s1
5. O=c1[nH]c(N2CCCC2)nc(N[C@@H]2C[C@H](CO)[C@@H](O)[C@H]2O)c1-c1nc2ccccc2s1

Solution:
1: 13; 2: 8; 3: 63; 4: 21; 5: 26

###

Test: Clearance in Wistar Han rat at 1 mg/kg, iv
Format: ADME, organism-based
Conditions: in vivo
Outcome label depends on clearance relative to 50 mL/min/kg: at/above gives fulfilled, below gives not fulfilled.

Problem: Evaluate O=c1[nH]c(N2CCOCC2)nc(N[C@@H]2C[C@H](CO)[C@@H](O)[C@H]2O)c1-c1nc2ccccc2s1 : clearance at minimum 50 mL/min/kg?
Solution: fulfilled

###

Exercise: state measured pIC50 for each of the compounds provided.
Target: Interleukin-1 receptor-associated kinase 4 (Homo sapiens, UniProt Q9NWZ3)
Sequence (Q9NWZ3 whole entry): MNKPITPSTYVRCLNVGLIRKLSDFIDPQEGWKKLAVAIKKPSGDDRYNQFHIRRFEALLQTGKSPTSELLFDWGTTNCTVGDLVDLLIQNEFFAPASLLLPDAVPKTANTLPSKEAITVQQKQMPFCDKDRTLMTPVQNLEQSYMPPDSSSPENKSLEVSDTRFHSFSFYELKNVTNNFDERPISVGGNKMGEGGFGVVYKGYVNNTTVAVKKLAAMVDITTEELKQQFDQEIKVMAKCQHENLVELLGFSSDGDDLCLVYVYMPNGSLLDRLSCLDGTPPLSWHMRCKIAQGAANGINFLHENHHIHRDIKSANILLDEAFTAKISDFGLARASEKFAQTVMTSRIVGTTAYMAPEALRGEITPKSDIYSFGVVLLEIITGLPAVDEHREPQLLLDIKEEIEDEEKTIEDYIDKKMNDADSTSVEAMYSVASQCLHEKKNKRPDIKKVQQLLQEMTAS
Assay: Inhibition of IRAK4-mediated NFkappaB activation in human THP1-XBlue cells assessed as LPS-induced secreted embryonic alkaline phosphatase activity treated 1 hr before LPS challenge measured after 5 hrs by spectrophotometer analysis
Format: cell-based, THP-1
Numbers only, as −log10 of the molar value.

O=c1[nH]c(N2CCCC2)nc(N[C@@H]2C[C@H](CO)[C@@H](O)[C@H]2O)c1-c1nc2ccccc2s1 : 7.11
C[C@@H]1CC[C@@H](Nc2nc(N3CCOCC3)[nH]c(=O)c2-c2nc3ccccc3s2)CN1 : 6.24
O=c1[nH]c(N2CCC2)nc(N[C@@H]2C[C@H](CO)[C@@H](O)[C@H]2O)c1-c1nc2ccccc2s1 : 6.53
O=c1[nH]c(N2CCOCC2)nc(N[C@H]2CNC[C@H](O)C2)c1-c1nc2ccccc2s1 : 6.48

Kindly consider the entry below.
Problem: Need pIC50 of O=c1[nH]c(N2CCc3ccccc3C2)nc(N[C@@H]2C[C@H](CO)[C@@H](O)[C@H]2O)c1-c1nc2ccccc2s1 , thanks.
Solution: 6.85

###

Experiment: Clearance in Wistar Han rat at 1 mg/kg, iv
Type: ADME, organism-based
Conditions: in vivo
Simple rule here: clearance less than 50 mL/min/kg is Condition met, otherwise Condition not met.

Previously resolved entries follow.
O=c1[nH]c(N2CCOCC2)nc(N[C@H]2CNC[C@H](O)C2)c1-c1nc2ccccc2s1 : Condition met
O=c1[nH]c(N2CCC2)nc(N[C@@H]2C[C@H](CO)[C@@H](O)[C@H]2O)c1-c1nc2ccccc2s1 : Condition not met
O=c1[nH]c(N2CCOCC2)nc(N[C@@H]2CCCNC2)c1-c1nc2ccccc2s1 : Condition met

Please turn your attention to the following entry.
Problem: Bench note: check whether O=c1[nH]c(N2CCc3ccccc3C2)nc(N[C@@H]2C[C@H](CO)[C@@H](O)[C@H]2O)c1-c1nc2ccccc2s1 shows clearance below 50 mL/min/kg
Solution: Condition not met
